- Tested on: rodent macrophage (RAW) cell line
- method_description: cells
- condition_info: Mus musculus, Macrophage, read-out: Macrophage IC50

{"columns": ["molecule", "IC50 (µM)"],
 "data": [
  ["CCCCN(CCCC)CC(O)c1cc(C(F)(F)F)nc2c(C(F)(F)F)cccc12 (racemic) [compound 176990]", 46],
  ["OC(CNCCC1=CCCCC1)c1cc(C(F)(F)F)nc2c(C(F)(F)F)cccc12 (racemic) [compound 308249]", 27],
  ["CC(C)NCC(O)c1cc(C(F)(F)F)nc2c(C(F)(F)F)cccc12 (stereo not drawn) [WR308257]", 14.2]
]}
